Measured values drawn from the RNAGym collection of RNA variant scans (doi:10.1073/pnas.2313332121) for this set.

B1: TPR t1 (parent)
chain: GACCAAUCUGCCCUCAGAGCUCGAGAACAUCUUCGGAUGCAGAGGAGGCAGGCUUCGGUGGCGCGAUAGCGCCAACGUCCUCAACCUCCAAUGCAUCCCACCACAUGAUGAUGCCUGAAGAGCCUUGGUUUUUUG

Variants of: B1
TEST DESCRIPTION: polymerase ribozyme fitness, log enrichment relative to wild type (log ratio); higher = more active; in vitro selection for triplet polymerase activity
RECORDED METRIC: polymerase ribozyme fitness (log ratio)
Would you mind answering with just the numeric figure?

Recorded polymerase ribozyme fitness (log ratio) of U55G A66U , please.
-0.936

Repeat with G61A C86U
-0.712

Repeat with U59A G77U U130G
-1.24

Repeat with G61U C98U
-1.55

Repeat with G25A C49A G57A C89U C97G C115G
-6.47

Repeat with A46U C64G C123G C124A
-5.93

Repeat with C13G A37U U38C
-2.77

Repeat with C15A G57A U78A G110U C124G
-3.91

Repeat with G44A A50G C73U C102A C115G
-5.62

Repeat with C8U C64A U78C C123U
-4.51

Repeat with A2U G93C
-3.65
